This collection of values is drawn from patent US8367687B2.

molecular target: CDK2 cyA (Homo sapiens, UniProt P24941); experiment: CDK2 cyA IMAP; format: biochemical; conditions: Table 2; read-out: CDK2cyA IMAP/ IC50
Listed next: entries and their corresponding IC50.
assay-readout: IC50

[[record]]
compound = "Cc1n[nH]cc1-c1ccnc(NCCN(C)C)n1"
target_entity = "CDK2 cyA (Homo sapiens, UniProt P24941)"
assay_readout = "IC50"
value_observed = "≥ 15 µM"

[[record]]
compound = "CC(C)c1n[nH]cc1-c1ccnc(NC2CCN(C(=O)OC(C)(C)C)CC2)n1"
target_entity = "CDK2 cyA (Homo sapiens, UniProt P24941)"
assay_readout = "IC50"
value_observed = "< 1 µM"

[[record]]
compound = "CC(C)c1n[nH]cc1-c1ccnc(NC2CCCc3cccnc32)n1 (stereo not drawn)"
target_entity = "CDK2 cyA (Homo sapiens, UniProt P24941)"
assay_readout = "IC50"
value_observed = "> 15 µM"

[[record]]
compound = "Cc1n[nH]cc1-c1ccnc(NC2CCCN(C(=O)OC(C)(C)C)C2)n1 (stereo not drawn)"
target_entity = "CDK2 cyA (Homo sapiens, UniProt P24941)"
assay_readout = "IC50"
value_observed = "≥ 15 µM"

[[record]]
compound = "COc1ccccc1CNc1nccc(-c2c[nH]nc2C)n1"
target_entity = "CDK2 cyA (Homo sapiens, UniProt P24941)"
assay_readout = "IC50"
value_observed = "< 15 µM"

[[record]]
compound = "CC(C)c1n[nH]cc1-c1ccnc(NC2Cc3ccccc3C2)n1"
target_entity = "CDK2 cyA (Homo sapiens, UniProt P24941)"
assay_readout = "IC50"
value_observed = "< 0.5 µM"

[[record]]
compound = "CC(C)c1n[nH]cc1-c1ccnc(NC2CC(C)(C)c3ccccc32)n1 (stereo not drawn)"
target_entity = "CDK2 cyA (Homo sapiens, UniProt P24941)"
assay_readout = "IC50"
value_observed = "< 5 µM"

[[record]]
compound = "Cc1n[nH]cc1-c1ccnc(NCC2CC2)n1"
target_entity = "CDK2 cyA (Homo sapiens, UniProt P24941)"
assay_readout = "IC50"
value_observed = "< 10 µM"

[[record]]
compound = "CC(C)c1n[nH]cc1-c1ccnc(NC2CCNCC2)n1"
target_entity = "CDK2 cyA (Homo sapiens, UniProt P24941)"
assay_readout = "IC50"
value_observed = "< 1 µM"


* * *

Listed next: entries and their corresponding pIC50.
molecular target: CDK4 (Homo sapiens, UniProt P11802); assay: CDK4 HTRF; assay type: biochemical; conditions: Table 2; read-out: CDK4 HTRF/ IC50
Sequence (P11802 whole entry): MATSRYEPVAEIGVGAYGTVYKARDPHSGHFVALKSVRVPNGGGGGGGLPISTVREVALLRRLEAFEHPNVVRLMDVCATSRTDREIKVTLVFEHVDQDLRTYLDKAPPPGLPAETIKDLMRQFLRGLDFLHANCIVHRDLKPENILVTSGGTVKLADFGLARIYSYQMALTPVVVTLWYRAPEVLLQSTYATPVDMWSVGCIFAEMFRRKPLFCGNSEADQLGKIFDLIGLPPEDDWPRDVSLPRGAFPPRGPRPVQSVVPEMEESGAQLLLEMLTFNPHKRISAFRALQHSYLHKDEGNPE
Sequence (P24385 whole entry partner): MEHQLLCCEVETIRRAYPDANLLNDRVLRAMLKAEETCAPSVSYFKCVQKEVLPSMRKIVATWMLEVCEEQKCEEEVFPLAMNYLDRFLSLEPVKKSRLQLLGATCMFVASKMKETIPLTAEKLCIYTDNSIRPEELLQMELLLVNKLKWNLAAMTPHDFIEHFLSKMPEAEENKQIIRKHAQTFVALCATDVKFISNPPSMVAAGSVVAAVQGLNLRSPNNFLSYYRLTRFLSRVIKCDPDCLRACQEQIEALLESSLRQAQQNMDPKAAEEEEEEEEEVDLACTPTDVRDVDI
pIC50: −log10 of the molar value.
assay-readout: pIC50

[[record]]
compound = "CC(C)c1n[nH]cc1-c1ccnc(N[C@H]2CCCc3ccccc32)n1"
value_observed = "> 5.30"

[[record]]
compound = "COCCCNc1nccc(-c2c[nH]nc2C)n1"
value_observed = "> 5.30"

[[record]]
compound = "Cc1n[nH]cc1-c1ccnc(NCCCN2CCCC2=O)n1"
value_observed = "> 4.82"

[[record]]
compound = "Cc1n[nH]cc1-c1ccnc(NCCOc2ccccc2)n1"
value_observed = "> 5.30"

[[record]]
compound = "Cc1n[nH]cc1-c1ccnc(NCCc2ccccc2)n1"
value_observed = "> 6.00"

[[record]]
compound = "Cc1n[nH]cc1-c1ccnc(NC2CCN(Cc3ccccc3)C2)n1 (stereo not shown)"
value_observed = "> 6.00"

[[record]]
compound = "CC(C)c1n[nH]cc1-c1ccnc(NCCCNC2CCCCC2)n1"
value_observed = "> 5.30"

[[record]]
compound = "Cc1n[nH]cc1-c1ccnc(NCCN2CCOCC2)n1"
value_observed = "> 5.00"

[[record]]
compound = "CC(C)c1n[nH]cc1-c1ccnc(NC2CN3CCC2CC3)n1 (stereo not shown)"
value_observed = "> 7.30"

[[record]]
compound = "CCCCNc1nccc(-c2c[nH]nc2C)n1"
value_observed = "> 5.30"

